target: Atrial natriuretic peptide receptor 1 (Homo sapiens) (UniProt P16066); assay: Natriuretic polypeptide receptor (hNpr1) antagonism - Primary qHTS; settings: HEK293 hNpr1 GloSensor cGMP, ANP-stimulated luminescence; series mostly up to 46.3 µM; note: nearly all actives have a fitted effect of over 60% in size; note: potency is the fitted concentration of half-maximal effect
Sequence (P16066 whole entry, looked up): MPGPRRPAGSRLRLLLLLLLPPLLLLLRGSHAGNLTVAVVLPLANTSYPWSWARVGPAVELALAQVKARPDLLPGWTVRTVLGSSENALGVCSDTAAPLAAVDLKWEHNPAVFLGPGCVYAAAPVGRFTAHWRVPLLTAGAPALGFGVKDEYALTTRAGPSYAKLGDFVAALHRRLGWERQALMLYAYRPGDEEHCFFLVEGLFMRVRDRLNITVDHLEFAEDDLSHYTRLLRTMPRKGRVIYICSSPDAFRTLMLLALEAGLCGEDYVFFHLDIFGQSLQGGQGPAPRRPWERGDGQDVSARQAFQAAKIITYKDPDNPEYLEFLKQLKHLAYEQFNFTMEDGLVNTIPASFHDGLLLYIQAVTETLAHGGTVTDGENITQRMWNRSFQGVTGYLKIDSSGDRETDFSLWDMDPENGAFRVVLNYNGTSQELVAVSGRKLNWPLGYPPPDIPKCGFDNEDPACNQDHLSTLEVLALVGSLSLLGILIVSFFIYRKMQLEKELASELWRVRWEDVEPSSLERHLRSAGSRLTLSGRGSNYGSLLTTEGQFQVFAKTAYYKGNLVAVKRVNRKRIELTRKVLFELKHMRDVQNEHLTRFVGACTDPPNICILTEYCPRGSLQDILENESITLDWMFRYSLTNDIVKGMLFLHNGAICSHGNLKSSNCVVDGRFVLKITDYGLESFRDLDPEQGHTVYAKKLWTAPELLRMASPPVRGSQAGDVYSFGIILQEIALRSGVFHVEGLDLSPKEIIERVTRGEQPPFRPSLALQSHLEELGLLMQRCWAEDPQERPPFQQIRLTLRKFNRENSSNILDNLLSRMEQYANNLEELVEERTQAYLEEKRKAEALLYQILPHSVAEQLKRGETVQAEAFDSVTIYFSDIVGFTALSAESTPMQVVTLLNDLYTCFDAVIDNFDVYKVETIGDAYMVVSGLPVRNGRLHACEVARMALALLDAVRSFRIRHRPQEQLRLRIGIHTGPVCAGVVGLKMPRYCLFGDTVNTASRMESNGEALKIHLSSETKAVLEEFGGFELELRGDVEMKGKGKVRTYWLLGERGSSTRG
The whole screen tested about 76,000 compounds, of which about 1,200 (1.6%) were called active. Not shown: some 4% with an inconclusive outcome. Only a selection was taken, and actives are over-represented in it overall.
EXPERIMENTAL ENDPOINT: Potency

Example cases with answers are listed next.
O=C(Cc1cccnc1)N1CCCC(c2nc(CCOCC3CCCC3)no2)C1 (stereo unspecified) | inactive
C1CCC(COCCc2noc(C3CNC3)n2)C1 | 12.6 µM (active)
CC(C)c1noc(-c2cn(C3CCN(C(=O)COc4ccccc4)C3)nn2)n1 (stereo unspecified) | inactive
O=c1[nH]nc2n1CCCC2 | inactive
CCOc1ccc(CC(=O)N2CCCC3(C2)Nc2cccnc2NC3=NC2CCCC2)cc1 (stereo unspecified) | inactive

Q: Can you share its Potency? I mean this compound: CC(C)c1noc(-c2cn(C3CCN(C(=O)c4cccc(C#N)c4)CC3)nn2)n1
A: inactive
